This collection of values is drawn from patent US20220153751A1.

assayed_system: GSPT1 (Homo sapiens, UniProt P15170+Q96SW2)
Construct: Whole cell extracts were prepared using RIPA buffer; endogenous in cells; host or cells: MV-4-11
Sequence (P15170 whole entry): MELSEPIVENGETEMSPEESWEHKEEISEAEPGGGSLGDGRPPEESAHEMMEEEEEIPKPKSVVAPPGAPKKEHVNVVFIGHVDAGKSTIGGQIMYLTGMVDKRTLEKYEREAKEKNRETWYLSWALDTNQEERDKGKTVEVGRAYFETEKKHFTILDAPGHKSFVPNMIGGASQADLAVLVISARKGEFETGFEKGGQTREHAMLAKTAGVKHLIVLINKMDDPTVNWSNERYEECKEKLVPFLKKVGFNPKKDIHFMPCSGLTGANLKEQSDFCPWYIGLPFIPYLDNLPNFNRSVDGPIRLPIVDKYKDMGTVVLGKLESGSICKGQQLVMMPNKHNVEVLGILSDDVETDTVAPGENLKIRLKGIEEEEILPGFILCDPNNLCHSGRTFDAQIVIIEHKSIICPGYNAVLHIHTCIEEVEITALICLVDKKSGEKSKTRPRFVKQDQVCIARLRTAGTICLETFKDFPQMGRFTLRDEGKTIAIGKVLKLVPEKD
Sequence (Q96SW2 whole entry): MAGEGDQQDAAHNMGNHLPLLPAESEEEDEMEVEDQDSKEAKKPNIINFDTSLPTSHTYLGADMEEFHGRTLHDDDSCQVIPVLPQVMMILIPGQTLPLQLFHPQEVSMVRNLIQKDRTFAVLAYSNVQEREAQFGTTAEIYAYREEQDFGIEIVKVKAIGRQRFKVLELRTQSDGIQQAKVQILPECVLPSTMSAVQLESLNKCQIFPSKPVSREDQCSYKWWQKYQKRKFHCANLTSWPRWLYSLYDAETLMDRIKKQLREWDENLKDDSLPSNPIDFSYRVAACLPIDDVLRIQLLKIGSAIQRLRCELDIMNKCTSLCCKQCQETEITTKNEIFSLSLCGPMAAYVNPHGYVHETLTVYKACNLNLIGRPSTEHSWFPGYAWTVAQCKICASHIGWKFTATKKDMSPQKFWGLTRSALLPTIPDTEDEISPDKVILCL
Sequence (Q16531 whole entry partner): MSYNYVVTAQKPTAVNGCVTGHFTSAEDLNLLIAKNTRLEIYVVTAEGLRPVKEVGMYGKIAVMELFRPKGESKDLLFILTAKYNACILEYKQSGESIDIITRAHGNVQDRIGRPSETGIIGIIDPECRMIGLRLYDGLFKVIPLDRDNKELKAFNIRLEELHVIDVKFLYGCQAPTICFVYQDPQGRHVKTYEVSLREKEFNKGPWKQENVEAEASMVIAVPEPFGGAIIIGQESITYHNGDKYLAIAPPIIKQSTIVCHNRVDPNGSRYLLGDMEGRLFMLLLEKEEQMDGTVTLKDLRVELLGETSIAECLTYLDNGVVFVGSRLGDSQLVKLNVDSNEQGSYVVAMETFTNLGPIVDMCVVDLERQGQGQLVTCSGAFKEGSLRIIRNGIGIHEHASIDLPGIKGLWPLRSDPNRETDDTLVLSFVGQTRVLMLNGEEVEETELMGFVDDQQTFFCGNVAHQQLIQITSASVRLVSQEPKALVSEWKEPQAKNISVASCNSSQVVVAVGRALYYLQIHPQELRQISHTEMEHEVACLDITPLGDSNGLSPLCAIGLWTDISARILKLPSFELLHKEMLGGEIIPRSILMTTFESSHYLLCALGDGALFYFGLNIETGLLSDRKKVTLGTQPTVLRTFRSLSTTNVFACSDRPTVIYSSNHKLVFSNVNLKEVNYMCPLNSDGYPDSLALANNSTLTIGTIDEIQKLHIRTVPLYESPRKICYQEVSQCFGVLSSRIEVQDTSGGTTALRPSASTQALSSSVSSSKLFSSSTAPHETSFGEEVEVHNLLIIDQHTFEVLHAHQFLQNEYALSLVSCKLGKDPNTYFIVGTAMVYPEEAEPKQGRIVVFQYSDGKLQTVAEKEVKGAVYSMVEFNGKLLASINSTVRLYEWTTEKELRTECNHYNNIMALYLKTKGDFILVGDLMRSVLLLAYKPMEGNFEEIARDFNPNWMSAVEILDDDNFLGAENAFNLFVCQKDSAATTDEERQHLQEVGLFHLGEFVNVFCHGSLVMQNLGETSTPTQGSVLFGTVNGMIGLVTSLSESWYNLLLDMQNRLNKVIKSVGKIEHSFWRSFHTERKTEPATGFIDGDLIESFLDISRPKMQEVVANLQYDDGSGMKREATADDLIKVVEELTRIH
assay_notes: GSPT1 degradation assay (Western blot, MV-4-11 cells)
Assay type: cell-based
setup_conditions: MV4-11, 6-8 h
Description: MV-4-11 cells were grown in RPMI 1640 media supplemented with 10% fetal bovine serum, streptomycin and penicillin. Cells were cultured at approximately 10^6 cells per mL and incubated in DMSO or the indicated compound for 6-8 h. […] For Western blot analysis, whole cell protein extracts were separated on 4-12% SDS-polyacrylamide gels, transferred to nitrocellulose and probed with the indicated primary antibodies. […] The signal was detected using the Odyssey Imaging System (LI-COR). […]
As shown below, each of these compounds has a reported Dmax at 1 µM value.

Here's what some known entries look like.
compound	Dmax at 1 µM
Cn1ncc(-c2nc(N[C@H]3CC[C@H](NCC(=O)NCCCCCNCC(=O)NCc4cc5c(s4)C(=O)N(C4CCC(=O)NC4=O)C5)CC3)ncc2Cl)c1CC1CC1 (some centres unmarked) [Compound 30]	50 to 75%
Cn1ncc(-c2nc(N[C@H]3CC[C@H](NCC(=O)NCCOCCOCC(=O)NCc4ccc(COc5cccc6c5CN(C5CCC(=O)NC5=O)C6=O)cc4)CC3)ncc2Cl)c1CC1CC1 (some centres unmarked) [Compound 28]	< 25%
Cn1ncc(-c2nc(N[C@H]3CC[C@H](NC(=O)CCCCCCNCC(=O)NCc4ccc(COc5cccc6c5CN(C5CCC(=O)NC5=O)C6=O)cc4)CC3)ncc2Cl)c1CC1CC1 (some centres unmarked) [Compound 8]	< 25%
Cn1ncc(-c2nc(NC3CCC(NC(=O)CCCCCCNC(=O)NCc4scc5c4CN(C4CCC(=O)NC4=O)C5=O)CC3)ncc2Cl)c1CC1CC1 (centres unmarked) [Compound 4]	25 to 50%
Cn1ncc(-c2nc(N[C@H]3CC[C@H](NCC(=O)NCCOCCOCCOCCNc4cccc5c4C(=O)N(C4CCC(=O)NC4=O)C5=O)CC3)ncc2F)c1CC1CC1 (some centres unmarked) [Compound 50]	50 to 75%
Cn1ncc(-c2nc(N[C@H]3CC[C@H](NCCOCCOCCOCCNCc4cc5c(s4)C(=O)N(C4CCC(=O)NC4=O)C5)CC3)ncc2Cl)c1CC1CC1 (some centres unmarked) [Compound 66]	50 to 75%

Given Cn1ncc(-c2nc(N[C@H]3CC[C@H](NCC(=O)NCCCCNCC(=O)NCc4scc5c4C(=O)N(C4CCC(=O)NC4=O)C5=O)CC3)ncc2Cl)c1CC1CC1 (some centres unmarked) [Compound 51] , state its recorded Dmax at 1 µM.
25 to 50%

Given Cn1ncc(-c2ncnc(N[C@H]3CC[C@H](NCCCCCCCCNC(=O)NCc4cc5c(s4)C(=O)N(C4CCC(=O)NC4=O)C5)CC3)n2)c1CC1CC1 (some centres unmarked) [Compound 65] , state its recorded Dmax at 1 µM.
25 to 50%

Given Cn1ncc(-c2nc(N[C@H]3CC[C@H](NCC(=O)NCCNCC(=O)NCc4cc5c(s4)C(=O)N(C4CCC(=O)NC4=O)C5)CC3)ncc2Cl)c1CC1CC1 (some centres unmarked) [Compound 40] , state its recorded Dmax at 1 µM.
≥ 75%

Given CC(C)(C)c1cnc(CSc2cnc(NC(=O)C3CCN(CC(=O)NCCCCCNCC(=O)NCc4scc5c4CN(C4CCC(=O)NC4=O)C5=O)CC3)s2)o1 (centres unmarked) [Compound 33] , state its recorded Dmax at 1 µM.
≥ 75%

Given Cn1ncc(-c2nc(N[C@H]3CC[C@H](NCCCCCCCNCc4ccc(OCc5scc6c5CN([C@H]5CCC(=O)NC5=O)C6=O)cc4)CC3)ncc2Cl)c1CC1CC1 [Compound 68] , state its recorded Dmax at 1 µM.
≥ 75%

====

assayed_system: CDK9 (Homo sapiens, UniProt P50750)
Construct: Whole cell extracts were prepared using RIPA buffer; endogenous in cells; host or cells: MV-4-11
Sequence (P50750 whole entry): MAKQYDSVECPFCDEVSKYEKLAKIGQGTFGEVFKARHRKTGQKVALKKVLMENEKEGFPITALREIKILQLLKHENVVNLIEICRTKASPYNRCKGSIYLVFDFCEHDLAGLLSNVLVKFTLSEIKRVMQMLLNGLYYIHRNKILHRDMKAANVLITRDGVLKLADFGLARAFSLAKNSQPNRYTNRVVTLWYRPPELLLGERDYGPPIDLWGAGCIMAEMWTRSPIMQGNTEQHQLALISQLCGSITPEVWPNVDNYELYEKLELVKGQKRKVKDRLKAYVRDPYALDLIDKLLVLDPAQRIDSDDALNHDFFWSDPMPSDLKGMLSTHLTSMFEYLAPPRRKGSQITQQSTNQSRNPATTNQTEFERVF
assay_notes: CDK9 degradation assay (Western blot, MV-4-11 cells)
Type: cell-based
setup_conditions: MV4-11, 0.1 μM, 6-8 h
As shown below, each of these molecules has a reported Dmax at 0.1 µM value.

Here's what some known entries look like.
molecule	reading
Cn1ncc(-c2nc(N[C@H]3CC[C@H](NCC(=O)NCCCCNCC(=O)NCc4scc5c4CN(C4CCC(=O)NC4=O)C5=O)CC3)ncc2Cl)c1CC1CC1 (some centres unmarked)	50 to 75%
CC(C)(C)c1cnc(CSc2cnc(NC(=O)C3CCN(CC(=O)NCCCCCNCC(=O)NCc4scc5c4CN(C4CCC(=O)NC4=O)C5=O)CC3)s2)o1 (centres unmarked)	≥ 75%
Cn1ncc(-c2nc(N[C@H]3CC[C@H](NCCCCCCCCNC(=O)NCc4cc5c(s4)C(=O)N(C4CCC(=O)NC4=O)C5)CC3)ncc2Cl)c1CC1CC1 (some centres unmarked)	50 to 75%
Cn1ncc(-c2nc(N[C@H]3CC[C@H](NCC(=O)NCCCCNCC(=O)NCc4cc5c(s4)C(=O)N(C4CCC(=O)NC4=O)C5)CC3)ncc2Cl)c1CC1CC1 (some centres unmarked)	25 to 50%
CC(C)(C)c1cnc(CSc2cnc(NC(=O)C3CCN(CC(=O)NCCOCCOCCNC(=O)NCc4cc5c(s4)C(=O)N(C4CCC(=O)NC4=O)C5)CC3)s2)o1 (centres unmarked)	50 to 75%

Given CC(C)(C)c1cnc(CSc2cnc(NC(=O)C3CCN(CC(=O)NCCOCCOCCNCC(=O)NCc4scc5c4CN(C4CCC(=O)NC4=O)C5=O)CC3)s2)o1 (centres unmarked) , state its recorded Dmax at 0.1 µM.
50 to 75%

Given Cn1ncc(-c2nc(N[C@H]3CC[C@H](NCCCCCCCCNC(=O)NCc4cc5c(s4)C(=O)N(C4CCC(=O)NC4=O)C5)CC3)ncc2F)c1CC1CC1 (some centres unmarked) , state its recorded Dmax at 0.1 µM.
≥ 75%

Given CC(C)(C)c1cnc(CSc2cnc(NC(=O)C3CCN(CC(=O)NCCCCNCC(=O)NCc4cc5c(s4)C(=O)N(C4CCC(=O)NC4=O)C5)CC3)s2)o1 (centres unmarked) , state its recorded Dmax at 0.1 µM.
25 to 50%

====

assayed_system: GSPT1 (Homo sapiens, UniProt P15170+Q96SW2)
Construct: Whole cell extracts were prepared using RIPA buffer; endogenous in cells; host or cells: MV-4-11
assay_notes: GSPT1 degradation assay (Western blot, MV-4-11 cells)
Format: cell-based
setup_conditions: MV4-11, 6-8 h
quantity_name: Dmax at 1 µM

Here's what some known entries look like.
molecule	assayed_system	Dmax at 1 µM
CC(C)(C)c1cnc(CSc2cnc(NC(=O)C3CCN(CC(=O)NCCCNCC(=O)NCc4cc5c(s4)C(=O)N(C4CCC(=O)NC4=O)C5)CC3)s2)o1 (stereo not drawn) [Compound 52]	GSPT1 (Homo sapiens, UniProt P15170+Q96SW2)	50 to 75%
CC(C)(C)c1cnc(CSc2cnc(NC(=O)C3CCN(CC(=O)NCCCCNCC(=O)NCc4cc5c(s4)C(=O)N(C4CCC(=O)NC4=O)C5)CC3)s2)o1 (stereo not drawn) [Compound 14]	GSPT1 (Homo sapiens, UniProt P15170+Q96SW2)	25 to 50%
CC(C)(C)c1cnc(CSc2cnc(NC(=O)C3CCN(CC(=O)NCCCCCCCNC(=O)NCc4cc5c(s4)C(=O)N(C4CCC(=O)NC4=O)C5)CC3)s2)o1 (stereo not drawn) [Compound 18]	GSPT1 (Homo sapiens, UniProt P15170+Q96SW2)	50 to 75%

Given Cn1ncc(-c2nc(N[C@H]3CC[C@H](NCC(=O)NCCCCNCC(=O)NCc4cc5c(s4)C(=O)N(C4CCC(=O)NC4=O)C5=O)CC3)ncc2F)c1CC1CC1 (stereo partly drawn) [Compound 37] , state its recorded Dmax at 1 µM.
50 to 75%

Given Cn1ncc(-c2nc(N[C@H]3CC[C@H](NCC(=O)NCCCCNCC(=O)NCc4scc5c4CN(C4CCC(=O)NC4=O)C5=O)CC3)ncc2F)c1CC1CC1 (stereo partly drawn) [Compound 39] , state its recorded Dmax at 1 µM.
50 to 75%

Given Cn1ncc(-c2nc(N[C@H]3CC[C@H](NCCOCCOCCOCCOCCNc4cccc5c4C(=O)N(C4CCC(=O)NC4=O)C5=O)CC3)ncc2Cl)c1CC1CC1 (stereo partly drawn) [Compound 64] , state its recorded Dmax at 1 µM.
≥ 75%

====

As shown below, each of these molecules has a reported Dmax at 1 µM value.
assayed_system: CDK16 (Homo sapiens, UniProt Q00536)
Construct: Whole cell extracts were prepared using RIPA buffer; endogenous in cells; host or cells: MV-4-11
Sequence (Q00536 whole entry): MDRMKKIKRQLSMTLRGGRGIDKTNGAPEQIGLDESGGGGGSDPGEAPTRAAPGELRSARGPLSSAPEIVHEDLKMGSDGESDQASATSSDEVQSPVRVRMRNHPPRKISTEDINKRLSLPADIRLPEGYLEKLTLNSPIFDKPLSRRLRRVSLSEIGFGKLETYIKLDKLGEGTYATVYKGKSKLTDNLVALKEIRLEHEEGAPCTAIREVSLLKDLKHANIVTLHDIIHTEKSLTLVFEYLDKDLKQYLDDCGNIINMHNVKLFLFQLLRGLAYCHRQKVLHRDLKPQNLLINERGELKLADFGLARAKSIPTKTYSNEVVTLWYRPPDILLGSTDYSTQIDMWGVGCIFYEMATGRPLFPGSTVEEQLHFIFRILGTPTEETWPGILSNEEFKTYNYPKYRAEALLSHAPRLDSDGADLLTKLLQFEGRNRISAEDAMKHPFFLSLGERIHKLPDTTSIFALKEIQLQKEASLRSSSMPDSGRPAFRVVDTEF
assay_notes: CDK16 degradation assay (Western blot, MV-4-11 cells)
Assay type: cell-based
setup_conditions: MV4-11, 1 μM, 6-8 h

Here's what some known entries look like.
molecule	quantity_name	reading
Cn1ncc(-c2nc(N[C@H]3CC[C@H](NCC(=O)NCCCCCNC(=O)NCc4cc5c(s4)C(=O)N(C4CCC(=O)NC4=O)C5)CC3)ncc2F)c1CC1CC1 (stereo partly drawn) [Compound 17]	Dmax at 1 µM	50 to 75%
CC(C)(C)c1cnc(CSc2cnc(NC(=O)C3CCN(CC(=O)NCCOCCOCCNCC(=O)NCc4scc5c4CN(C4CCC(=O)NC4=O)C5=O)CC3)s2)o1 (stereo not drawn) [Compound 26]	Dmax at 1 µM	< 25%
Cn1ncc(-c2nc(N[C@H]3CC[C@H](NCCCCCCCCNC(=O)NCc4cc5c(s4)C(=O)N(C4CCC(=O)NC4=O)C5)CC3)ncc2Cl)c1CC1CC1 (stereo partly drawn) [Compound 22]	Dmax at 1 µM	50 to 75%
Cn1ncc(-c2nc(N[C@H]3CC[C@H](NCC(=O)NCCCCNCC(=O)NCc4cc5c(s4)C(=O)N(C4CCC(=O)NC4=O)C5)CC3)ncc2Cl)c1CC1CC1 (stereo partly drawn) [Compound 35]	Dmax at 1 µM	50 to 75%
Cn1ncc(-c2nc(N[C@H]3CC[C@H](NCC(=O)NCCCCNCC(=O)NCc4scc5c4CN(C4CCC(=O)NC4=O)C5=O)CC3)ncc2F)c1CC1CC1 (stereo partly drawn) [Compound 39]	Dmax at 1 µM	≥ 75%

// switching to the query molecule
Given Cn1ncc(-c2nc(N[C@H]3CC[C@H](NCCCCCCNC(=O)NCc4cc5c(s4)C(=O)N(C4CCC(=O)NC4=O)C5)CC3)ncc2Cl)c1CC1CC1 (stereo partly drawn) [Compound 24] , state its recorded Dmax at 1 µM.
≥ 75%
